Please provide measured DC50 for the entries that follow.
molecular target: BTK (Homo sapiens, UniProt Q06187); test: BTK cell degradation in TMD-8 cells, HTRF assay; format: cell-based; design: endogenous in cells; host or cells: TMD-8 cells; settings: 6 h treatment, IC50 (DC50) of BTK degradation
Sequence (Q06187 whole entry): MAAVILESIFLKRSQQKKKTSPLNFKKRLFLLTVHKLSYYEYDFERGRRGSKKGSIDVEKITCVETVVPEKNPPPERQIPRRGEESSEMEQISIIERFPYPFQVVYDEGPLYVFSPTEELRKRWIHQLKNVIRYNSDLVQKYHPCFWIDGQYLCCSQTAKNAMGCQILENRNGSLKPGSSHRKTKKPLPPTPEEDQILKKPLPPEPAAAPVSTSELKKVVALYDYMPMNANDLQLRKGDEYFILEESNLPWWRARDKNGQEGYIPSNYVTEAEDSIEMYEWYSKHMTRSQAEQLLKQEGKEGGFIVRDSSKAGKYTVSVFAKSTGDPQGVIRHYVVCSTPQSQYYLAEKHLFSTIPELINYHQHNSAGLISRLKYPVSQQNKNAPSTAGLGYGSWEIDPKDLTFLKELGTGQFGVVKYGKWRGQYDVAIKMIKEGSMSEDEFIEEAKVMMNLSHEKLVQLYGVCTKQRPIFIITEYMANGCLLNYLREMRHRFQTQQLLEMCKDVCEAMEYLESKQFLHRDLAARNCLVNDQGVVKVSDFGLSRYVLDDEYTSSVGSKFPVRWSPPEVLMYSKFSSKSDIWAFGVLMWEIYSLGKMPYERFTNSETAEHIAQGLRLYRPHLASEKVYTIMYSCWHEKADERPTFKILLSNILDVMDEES

Value (DC50, BTK (Homo sapiens, UniProt Q06187)) for record COc1ccccc1C(=O)NCc1cc(F)c(-c2nn3c(c2C(N)=O)Nc2ccc(N4CCN(CC5CCN(c6ccc(N7CCC(=O)NC7=O)cc6)CC5)CC4)cc2CC3)cc1C [Example C48] = 3.52 nM

Lab note: molecule Cc1cccc(NC(=O)c2cc(F)c(-c3nn4c(c3C(N)=O)Nc3ccc(N5CCN(CC6CCN(c7ccc(N8CCC(=O)NC8=O)cc7)CC6)CC5)cc3CC4)cc2C)n1 [Example B30] tested on BTK (Homo sapiens, UniProt Q06187); recorded DC50 was 2.53 nM

Given the molecule COc1ccc2ccccc2c1C(=O)N[C@H](C)c1ccc(-c2nn3c(c2C(N)=O)Nc2ccc(N4CCN(CC5CCN(c6ccc(N7CCC(=O)NC7=O)cc6)CC5)CC4)cc2CC3)cc1 [Example C13] and test system BTK (Homo sapiens, UniProt Q06187), the measured DC50 is 11.6 nM

Observed DC50, BTK (Homo sapiens, UniProt Q06187), Cc1cc(Cl)cc(NC(=O)c2ccc(-c3nn4c(c3C(N)=O)Nc3ccc(N5CCN(CC6CCN(c7ccc(N8CCC(=O)NC8=O)cc7)CC6)CC5)cc3CC4)c(F)c2C)n1 [Example B42] : 3.67 nM

Case COc1cccc(C)c1C(=O)NCc1ccc(-c2nn3c(c2C(N)=O)Nc2ccc(N4CCN(CC5CCN(c6ccc(N7CCC(=O)NC7=O)cc6)CC5)CC4)cc2CC3)cc1C [Example C38] , BTK (Homo sapiens, UniProt Q06187), DC50 recorded as 7.96 nM

Field DC50 (BTK (Homo sapiens, UniProt Q06187)), entry Cc1c(C(=O)Nc2cnc3ccccc3n2)ccc(-c2nn3c(c2C(N)=O)Nc2ccc(N4CCN(CC5CCN(c6ccc(N7CCC(=O)NC7=O)cc6)CC5)CC4)cc2CC3)c1F [Example B47] : 1.9 nM

DC50 value, target or system BTK (Homo sapiens, UniProt Q06187), for COc1cc(C(=O)Nc2cccc(C)n2)ccc1-c1nn2c(c1C(N)=O)Nc1ccc(N3CCN(CC4CCN(c5ccc(N6CCC(=O)NC6=O)cc5)CC4)CC3)cc1CC2 [Example B22] : 0.338 nM

Record COc1c(F)c(F)c(F)c(F)c1C(=O)NCc1ccc(-c2nn3c(c2C(N)=O)Nc2ccc(N4CCN(CC5CCN(c6ccc(N7CCC(=O)NC7=O)cc6)CC5)CC4)cc2CC3)cc1C [Example C43] ; system BTK (Homo sapiens, UniProt Q06187); DC50 = 29.4 nM

The value of DC50 recorded for Cc1cccc(NC(=O)c2ccc(-c3nn4c(c3C(N)=O)Nc3ccc(N5CCN(C6CC(c7ccc(N[C@@H]8CCC(=O)NC8=O)cc7)C6)CC5)cc3CC4)c(F)c2C)n1 (stereo partly drawn) [Example B71] when tested on BTK (Homo sapiens, UniProt Q06187) reads 7.45 nM

Lab note: molecule COc1ccc(C(F)(F)F)cc1C(=O)NCc1ccc(-c2nn3c(c2C(N)=O)Nc2ccc(N4CCN(CC5CCN(c6ccc(N7CCC(=O)NC7=O)cc6)CC5)CC4)cc2CC3)cc1 [Example C21] tested on BTK (Homo sapiens, UniProt Q06187); recorded DC50 was 0.703 nM

Field DC50 (BTK (Homo sapiens, UniProt Q06187)), entry Cc1c(C(=O)Nc2cn(C)cn2)ccc(-c2nn3c(c2C(N)=O)Nc2ccc(N4CCN(CC5CCN(c6ccc(N7CCC(=O)NC7=O)cc6)CC5)CC4)cc2CC3)c1F [Example B87] : 0.591 nM

Tested on BTK (Homo sapiens, UniProt Q06187), the item Cc1cccc(NC(=O)c2ccc(-c3nn4c(c3C(N)=O)Nc3ccc(N5CCN(C[C@H]6CCN(c7ccc(N8CCC(=O)NC8=O)cc7)C6)CC5)cc3CC4)c(F)c2C)n1 [Example B74] showed DC50 equal to 7.15 nM

Cc1c(C(=O)Nc2nccs2)ccc(-c2nn3c(c2C(N)=O)Nc2ccc(N4CCN(CC5CCN(c6ccc(N7CCC(=O)NC7=O)cc6)CC5)CC4)cc2CC3)c1F [Example B83] tested on BTK (Homo sapiens, UniProt Q06187) gave DC50: 2.9 nM

With BTK (Homo sapiens, UniProt Q06187) as the test system, COc1ccccc1C(=O)NCc1ccc(-c2nn3c(c2C(N)=O)Nc2ccc(N4CCN(CC5CCN(c6ccc(N7CCC(=O)NC7=O)cc6)CC5)CC4)cc2CC3)c(OC)c1 [Example C44] showed DC50 of 3.8 nM

Lab note: molecule NC(=O)c1c(-c2ccc(Oc3ccccc3)cc2)nn2c1Nc1ccc(N3CCN(CC4CCN(c5ccc(N6CCC(=O)NC6=O)cc5)CC4)CC3)cc1CC2 [Example A21] tested on BTK (Homo sapiens, UniProt Q06187); recorded DC50 was 1.51 nM

Case Cc1cc(N2CCC(CN3CCN(c4ccc5c(c4)CCn4nc(-c6ccc(C(=O)Nc7cc(C(F)(F)F)ccn7)cc6)c(C(N)=O)c4N5)CC3)CC2)ccc1N1CCC(=O)NC1=O [Example B3] , BTK (Homo sapiens, UniProt Q06187), DC50 recorded as 0.534 nM

Note to self: DC50 of Cc1cccc(NC(=O)c2ccc(-c3nn4c(c3C(N)=O)Nc3ccc(N5CCN(C6CC(c7ccc([C@H]8CCC(=O)NC8=O)cc7)C6)CC5)cc3CC4)c(F)c2C)n1 (stereo partly drawn) [Example B67] with BTK (Homo sapiens, UniProt Q06187) was 0.622 nM

Response field DC50 (BTK (Homo sapiens, UniProt Q06187)) for item Cc1cccc(NC(=O)c2ncc(-c3nn4c(c3C(N)=O)Nc3ccc(N5CCN(C6CC(c7ccc([C@H]8CCC(=O)NC8=O)cc7)C6)CC5)cc3CC4)cc2C)n1 (stereo partly drawn) [Example B34] : 57.8 nM

The observed DC50 for Cc1cccc(N(CC(=O)OCc2ccccc2)C(=O)c2ccc(-c3nn4c(c3C(N)=O)Nc3ccc(N5CCN(CC6CCN(c7ccc(N8CCC(=O)N(CC(=O)OCc9ccccc9)C8=O)cc7)CC6)CC5)cc3CC4)c(F)c2C)n1 [Example B81] when tested with BTK (Homo sapiens, UniProt Q06187) stands at > 2000 nM

Reading of DC50 for COc1ccccc1C(=O)NCc1ccc(-c2nn3c(c2C(N)=O)Nc2ccc(N4CCN(CC5CCN(c6ccc(N7CCC(=O)NC7=O)cc6)CC5)CC4)cc2CC3)c(F)c1F [Example C47] with BTK (Homo sapiens, UniProt Q06187): 4.64 nM

Form field DC50 for item COc1ccccc1C(=O)NCc1ccc(-c2nn3c(c2C(N)=O)Nc2ccc(N4CCN(CC5CCN(c6ccc(N7CCC(=O)NC7=O)cc6)CC5)CC4)cc2CC3)cc1C [Example C32] on BTK (Homo sapiens, UniProt Q06187): 3.1 nM

====

test system: HEK-293 cells; assay: HEK-293 cytotoxicity detection (CellTiter-Glo); assay type: cell-based; conditions: Homo sapiens, 72 h, 72 h incubation, CellTiter-Glo luminescence, read-out: HEK293
pIC50: −log10 of the molar value.
REPORTED ENDPOINT: pIC50

The compound Cc1cccc(NC(=O)c2cc(F)c(-c3nn4c(c3C(N)=O)Nc3ccc(N5CCN(CC6CCN(c7ccc(N8CCC(=O)NC8=O)cc7)CC6)CC5)cc3CC4)cc2C)n1 , tested on HEK-293 cells, showed pIC50 of < 5.00

Form field pIC50 for item NC(=O)c1c(-c2ccc(Oc3ccccc3)cc2)nn2c1Nc1cc(C(=O)N3CCC(CN4CCN(c5cc6c(cc5F)C(=O)N(C5CCC(=O)NC5=O)C6=O)CC4)CC3)ccc1CC2 (stereo not drawn) on HEK-293 cells: < 5.00

The compound COc1c(F)c(F)c(F)c(F)c1C(=O)NCc1ccc(-c2nn3c(c2C(N)=O)Nc2ccc(N4CCN(CC5CCN(c6ccc(N7CCC(=O)NC7=O)cc6)CC5)CC4)cc2CC3)cc1C on HEK-293 cells: pIC50 was 6.01

====

target: BTK (Homo sapiens, UniProt Q06187); assay: BTK cell degradation in TMD-8 cells, HTRF assay; type: cell-based; design: endogenous in cells; host or cells: TMD-8 cells; conditions: 6 h treatment, IC50 (DC50) of BTK degradation
// thresholds for DC50 classes: lower = under 2 nM, middle = from 2 nM up to 7 nM, upper = 7 nM and over

Sort into band: NC(=O)c1c(-c2ccc(Oc3ccccc3)cc2)nn2c1Nc1cc(N3CCN(CC4CCN(c5ccc6c(c5)C(=O)N(C5CCC(=O)NC5=O)C6=O)CC4)CC3)ccc1CC2 (stereo not shown)
upper

Sort NC(=O)c1c(-c2ccc(Oc3ccccc3)cc2)nn2c1Nc1cc(C3CCN(CCCOc4ccc(NC5CCC(=O)NC5=O)cc4)CC3)ccc1CC2 (stereo not shown) into one of the categories.
middle

Category of Cc1c(C(=O)Nc2cscn2)ccc(-c2nn3c(c2C(N)=O)Nc2ccc(N4CCN(CCc5cc(F)c([C@H]6CCC(=O)NC6=O)c(F)c5)CC4)cc2CC3)c1F , please.
lower

Please let me know in which category the item Cc1c(C(=O)Nc2ccc3[nH]ccc3n2)ccc(-c2nn3c(c2C(N)=O)Nc2ccc(N4CCN(CC5CCN(c6ccc(N7CCC(=O)NC7=O)cc6)CC5)CC4)cc2CC3)c1F belongs.
lower

# bin label for Cc1cc(C(=O)Nc2cc(C(F)(F)F)ccn2)ccc1-c1nn2c(c1C(N)=O)Nc1ccc(N3CCN(CC4CCN(c5ccc(N6CCC(=O)NC6=O)cc5)CC4)CC3)cc1CC2
middle

Band assignment needed for NC(=O)c1c(-c2ccc(Oc3ccccc3)cc2)nn2c1Nc1ccc(NC(=O)C3CCN(c4cccc5c4C(=O)N(C4CCC(=O)NC4=O)C5=O)CC3)cc1CC2 (stereo not shown) please.
middle

Note: place this molecule into its band. Item: COc1ccccc1C(=O)NCc1ccc(-c2nn3c(c2C(N)=O)Nc2ccc(N4CCN(CC5CCN(c6ccc(N7CCC(=O)NC7=O)cc6)CC5)CC4)cc2CC3)cc1C(F)(F)F
upper

Which class holds Cc1cccc(NC(=O)c2ccc(-c3nn4c(c3C(N)=O)Nc3ccc(N5CCN(CC6CCN(c7cc8c(cc7F)C(=O)N(C7CCC(=O)NC7=O)C8=O)CC6)CC5)cc3CC4)c(F)c2C)n1 (stereo not shown) ?
middle

Hello team, could you let me know which band the following molecule falls into: COc1ccc(C)cc1C(=O)NCc1ccc(-c2nn3c(c2C(N)=O)Nc2ccc(N4CCN(CC5CCN(c6ccc(N7CCC(=O)NC7=O)cc6)CC5)CC4)cc2CC3)cc1
lower

Which of the defined bands does the recorded DC50 of Cc1cccc(N(CC(=O)OC(C)(C)C)C(=O)c2ccc(-c3nn4c(c3C(N)=O)Nc3ccc(N5CCN(CC6CCN(c7ccc(N8CCC(=O)N(CC(=O)OC(C)(C)C)C8=O)cc7)CC6)CC5)cc3CC4)c(F)c2C)n1 sit within?
upper

Which DC50 band matches COc1ccnc(NC(=O)c2ccc(-c3nn4c(c3C(N)=O)Nc3ccc(N5CCN(CC6CCN(c7ccc(N8CCC(=O)NC8=O)cc7)CC6)CC5)cc3CC4)cc2)c1 ?
middle

Lab note: sort NC(=O)c1c(-c2ccc(Oc3ccccc3)cc2)nn2c1Nc1cc(C3CCN(CC4CCN(c5ccc(N6CCC(=O)NC6=O)cc5)CC4)CC3)ccc1CC2 into the matching DC50 band.
middle

Form: Item = CCC(Nc1cc(C(F)(F)F)ccn1)c1ccc(-c2nn3c(c2C(N)=O)Nc2ccc(N4CCN(CC5CCN(c6ccc(N7CCC(=O)NC7=O)cc6)CC5)CC4)cc2CC3)cc1 (stereo not shown) ; Class = ?
upper

Band assignment needed for Cc1c(C(=O)Nc2nc(C(F)(F)F)n[nH]2)ccc(-c2nn3c(c2C(N)=O)Nc2ccc(N4CCN(CC5CCN(c6ccc(N7CCC(=O)NC7=O)cc6)CC5)CC4)cc2CC3)c1F please.
lower

Just checking, what class would you give CC(C)(C)c1ccc(Oc2ccc(-c3nn4c(c3C(N)=O)Nc3ccc(C5CCN(CC6CCN(c7ccc(N8CCC(=O)NC8=O)cc7)CC6)CC5)cc3CC4)cc2)cc1 here?
upper
